- target or system: human TLR7 (Homo sapiens)
- Sequence (Q9NYK1 27-1049): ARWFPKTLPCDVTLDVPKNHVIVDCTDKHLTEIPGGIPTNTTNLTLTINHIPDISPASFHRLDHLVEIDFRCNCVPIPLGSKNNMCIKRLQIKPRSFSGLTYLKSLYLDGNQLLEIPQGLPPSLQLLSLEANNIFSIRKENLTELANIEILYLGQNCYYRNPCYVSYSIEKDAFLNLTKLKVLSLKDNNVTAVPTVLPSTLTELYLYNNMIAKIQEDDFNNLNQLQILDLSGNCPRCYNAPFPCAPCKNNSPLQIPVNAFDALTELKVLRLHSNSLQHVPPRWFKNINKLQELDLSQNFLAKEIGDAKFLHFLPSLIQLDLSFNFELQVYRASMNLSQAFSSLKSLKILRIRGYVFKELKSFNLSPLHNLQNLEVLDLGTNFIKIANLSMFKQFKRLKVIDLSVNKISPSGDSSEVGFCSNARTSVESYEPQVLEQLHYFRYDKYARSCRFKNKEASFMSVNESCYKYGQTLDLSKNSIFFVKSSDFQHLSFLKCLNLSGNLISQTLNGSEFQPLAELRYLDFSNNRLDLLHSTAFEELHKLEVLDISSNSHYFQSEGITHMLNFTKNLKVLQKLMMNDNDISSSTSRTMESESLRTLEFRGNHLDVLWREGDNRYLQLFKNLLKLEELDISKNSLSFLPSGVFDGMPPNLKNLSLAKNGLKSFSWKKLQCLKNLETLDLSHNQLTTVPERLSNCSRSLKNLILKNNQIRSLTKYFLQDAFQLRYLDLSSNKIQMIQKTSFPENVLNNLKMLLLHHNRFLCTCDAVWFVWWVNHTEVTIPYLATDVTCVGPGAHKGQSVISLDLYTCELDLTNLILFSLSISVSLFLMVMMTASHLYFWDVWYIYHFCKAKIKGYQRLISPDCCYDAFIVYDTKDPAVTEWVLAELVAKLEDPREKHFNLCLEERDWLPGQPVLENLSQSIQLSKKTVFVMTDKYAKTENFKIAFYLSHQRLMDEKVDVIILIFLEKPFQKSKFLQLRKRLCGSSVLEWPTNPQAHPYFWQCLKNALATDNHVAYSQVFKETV
- procedure text: HEK293-Blue-hTLR-7 cells assay (SEAP reporter, NF-κB activation)
- Assay type: cell-based
- cond: HEK293-Blue-hTLR-7 cells, 20 hrs incubation, SEAP reporter; corresponding active form; read-out: HEK293-hTLR-7 EC50 (Active form)
Lab note - cut at 60 nM for EC50: 1 if strictly below, 0 if not.

>  <compound>
CCS(=O)(=O)c1nc(N)c2[nH]c(=O)n(Cc3ccc(Br)cc3)c2n1 [Compound 22a]

>  <class label>
1

$$$$
>  <compound>
CCCS(=O)(=O)c1nc(N)c2[nH]c(=O)n(Cc3ccccc3)c2n1

>  <class label>
0

$$$$

Ask: Lab log: compare recorded EC50 with 60 nM; is it strictly lower for CCS(=O)(=O)c1nc(N)c2[nH]c(=O)n(Cc3ccc(F)cc3)c2n1 [Compound 20a] ?
Reply: 1

Ask: Okay, and CCCS(=O)(=O)c1nc(N)c2[nH]c(=O)n(Cc3ccc(Cl)cc3)c2n1 ?
Reply: 1

Ask: Okay, and CCCS(=O)(=O)c1nc(N)c2[nH]c(=O)n(Cc3ccc(C)cc3)c2n1 [Compound 12a] ?
Reply: 0

Ask: Okay, and CCS(=O)(=O)c1nc(N)c2[nH]c(=O)n(Cc3ccccc3)c2n1 ?
Reply: 0

Ask: Okay, and CCS(=O)(=O)c1nc(N)c2[nH]c(=O)n(Cc3ccc(Cl)cc3)c2n1 ?
Reply: 0

Ask: Okay, and CCS(=O)(=O)c1nc(N)c2[nH]c(=O)n(Cc3ccc(C)cc3)c2n1 [Compound 14a] ?
Reply: 0

* * *

- target or system: human TLR7 (Homo sapiens, UniProt Q9NYK1)
- procedure text: HEK293-Blue-hTLR-7 cells assay (SEAP reporter, NF-κB activation)
- Type: cell-based
- cond: calculated ratio of prodrug EC50 to EC50 of corresponding active form
outcome measure: Ratio (EC50(prodrug)/EC50(active form))
One number for each entry.

>  <molecule>
CCN(C)C(=O)n1c(=O)n(Cc2ccc(F)cc2)c2nc(S(=O)(=O)CC)nc(N)c21 [Example 19]

>  <endpoint result>
8233

$$$$
>  <molecule>
CCS(=O)(=O)c1nc(N)c2c(n1)n(Cc1ccccc1)c(=O)n2C(=O)N1CCCC1 [Example 5]

>  <endpoint result>
174.7

$$$$
>  <molecule>
CCCN(C)C(=O)n1c(=O)n(Cc2ccc(F)cc2)c2nc(S(=O)(=O)CC)nc(N)c21 [Example 18]

>  <endpoint result>
40

$$$$
>  <molecule>
CCCN(C)C(=O)n1c(=O)n(Cc2ccc(Br)cc2)c2nc(S(=O)(=O)CC)nc(N)c21 [Example 22]

>  <endpoint result>
570

$$$$
>  <molecule>
CCS(=O)(=O)c1nc(N)c2c(n1)n(Cc1ccc(Cl)cc1)c(=O)n2C(=O)N(C)C [Example 10]

>  <endpoint result>
27.7

$$$$

Batch of 6 molecules: report Ratio (EC50(prodrug)/EC50(active form)) for each.
1. CCCS(=O)(=O)c1nc(N)c2c(n1)n(Cc1ccc(OC)cc1)c(=O)n2C(=O)N(C)CC [Example 21]
2. CCS(=O)(=O)c1nc(N)c2c(n1)n(Cc1ccc(Cl)cc1)c(=O)n2C(=O)N(C)CCOC [Example 11]
3. CCCN(C)C(=O)n1c(=O)n(Cc2ccc(C)cc2)c2nc(S(=O)(=O)CCC)nc(N)c21 [Example 12]
4. CCCN(C)C(=O)n1c(=O)n(Cc2ccc(Cl)cc2)c2nc(S(=O)(=O)CCC)nc(N)c21 [Example 6]
5. CCCN(C)C(=O)n1c(=O)n(Cc2ccc(OC)cc2)c2nc(S(=O)(=O)CCC)nc(N)c21 [Example 20]
6. CCCN(C)C(=O)n1c(=O)n(Cc2ccccc2)c2nc(S(=O)(=O)CC)nc(N)c21 [Example 4]

Reply:
1: 3025; 2: 121.7; 3: 50.8; 4: 123.8; 5: 4012.5; 6: 514.7

Batch of 3 molecules: report Ratio (EC50(prodrug)/EC50(active form)) for each.
1. CCN(C)C(=O)n1c(=O)n(Cc2ccccc2)c2nc(S(=O)(=O)CC)nc(N)c21 [Example 3]
2. CCCS(=O)(=O)c1nc(N)c2c(n1)n(Cc1ccccc1)c(=O)n2C(=O)N(C)CC [Example 1]
3. CCCN(C)C(=O)n1c(=O)n(Cc2ccc(Cl)cc2)c2nc(S(=O)(=O)CC)nc(N)c21 [Example 8]

Reply:
1. 614.1
2. 145.3
3. 179.5

Batch of 6 molecules: report Ratio (EC50(prodrug)/EC50(active form)) for each.
1. CCCS(=O)(=O)c1nc(N)c2c(n1)n(Cc1ccc(C)cc1)c(=O)n2C(=O)N(C)CC [Example 13]
2. CCCS(=O)(=O)c1nc(N)c2c(n1)n(Cc1ccc(Cl)cc1)c(=O)n2C(=O)N(C)CC [Example 7]
3. CCN(C)C(=O)n1c(=O)n(Cc2ccc(C)cc2)c2nc(S(=O)(=O)CC)nc(N)c21 [Example 16]
4. CCCN(C)C(=O)n1c(=O)n(Cc2ccccc2)c2nc(S(=O)(=O)CCC)nc(N)c21 [Example 2]
5. CCN(C)C(=O)n1c(=O)n(Cc2ccc(Cl)cc2)c2nc(S(=O)(=O)CC)nc(N)c21 [Example 9]
6. CCCN(C)C(=O)n1c(=O)n(Cc2ccc(C)cc2)c2nc(S(=O)(=O)CC)nc(N)c21 [Example 14]

Reply:
1. 147.7
2. 152.4
3. 445.9
4. 86.7
5. 219.3
6. 1053

Batch of 2 molecules: report Ratio (EC50(prodrug)/EC50(active form)) for each.
1. CCN(CC)C(=O)n1c(=O)n(Cc2ccc(C)cc2)c2nc(S(=O)(=O)CC)nc(N)c21 [Example 15]
2. CCS(=O)(=O)c1nc(N)c2c(n1)n(Cc1ccc(C)cc1)c(=O)n2C(=O)N1CCCC1 [Example 17]

Reply:
86.2
1030.8

* * *

What EC50 was measured for each of the following?
- target or system: UniProt Q9NYK1
- procedure text: HEK293-Blue-hTLR-7 cells assay (SEAP reporter, NF-κB activation)
- Assay type: cell-based
- cond: HEK293-Blue-hTLR-7 cells, 20 hrs incubation, SEAP reporter; prodrug; read-out: HEK293-hTLR-7 EC50 (Prodrug)
One number for each entry, in µM.

Completed entries (count: 10):
>  <compound>
CCS(=O)(=O)c1nc(N)c2c(n1)n(Cc1ccccc1)c(=O)n2C(=O)N1CCCC1 [Example 5]

>  <target or system>
UniProt Q9NYK1

>  <EC50 (µM)>
29.7

$$$$
>  <compound>
CCCN(C)C(=O)n1c(=O)n(Cc2ccccc2)c2nc(S(=O)(=O)CCC)nc(N)c21 [Example 2]

>  <target or system>
UniProt Q9NYK1

>  <EC50 (µM)>
6.5

$$$$
>  <compound>
CCCN(C)C(=O)n1c(=O)n(Cc2ccc(C)cc2)c2nc(S(=O)(=O)CC)nc(N)c21 [Example 14]

>  <target or system>
UniProt Q9NYK1

>  <EC50 (µM)>
68.5

$$$$
>  <compound>
CCCS(=O)(=O)c1nc(N)c2c(n1)n(Cc1ccc(OC)cc1)c(=O)n2C(=O)N(C)CC [Example 21]

>  <target or system>
UniProt Q9NYK1

>  <EC50 (µM)>
24.2

$$$$
>  <compound>
CCCN(C)C(=O)n1c(=O)n(Cc2ccccc2)c2nc(S(=O)(=O)CC)nc(N)c21 [Example 4]

>  <target or system>
UniProt Q9NYK1

>  <EC50 (µM)>
87.5

$$$$
>  <compound>
CCCN(C)C(=O)n1c(=O)n(Cc2ccc(F)cc2)c2nc(S(=O)(=O)CC)nc(N)c21 [Example 18]

>  <target or system>
UniProt Q9NYK1

>  <EC50 (µM)>
2.4

$$$$
>  <compound>
CCS(=O)(=O)c1nc(N)c2c(n1)n(Cc1ccc(C)cc1)c(=O)n2C(=O)N1CCCC1 [Example 17]

>  <target or system>
UniProt Q9NYK1

>  <EC50 (µM)>
67

$$$$
>  <compound>
CCCS(=O)(=O)c1nc(N)c2c(n1)n(Cc1ccc(C)cc1)c(=O)n2C(=O)N(C)CC [Example 13]

>  <target or system>
UniProt Q9NYK1

>  <EC50 (µM)>
9.6

$$$$
>  <compound>
CCCN(C)C(=O)n1c(=O)n(Cc2ccc(C)cc2)c2nc(S(=O)(=O)CCC)nc(N)c21 [Example 12]

>  <target or system>
UniProt Q9NYK1

>  <EC50 (µM)>
3.3

$$$$
>  <compound>
CCN(C)C(=O)n1c(=O)n(Cc2ccc(C)cc2)c2nc(S(=O)(=O)CC)nc(N)c21 [Example 16]

>  <target or system>
UniProt Q9NYK1

>  <EC50 (µM)>
43.9

$$$$

Batch of 5 compounds: report EC50 for each.
1. CCS(=O)(=O)c1nc(N)c2c(n1)n(Cc1ccc(Cl)cc1)c(=O)n2C(=O)N(C)CCOC [Example 11]
2. CCN(CC)C(=O)n1c(=O)n(Cc2ccc(C)cc2)c2nc(S(=O)(=O)CC)nc(N)c21 [Example 15]
3. CCCN(C)C(=O)n1c(=O)n(Cc2ccc(OC)cc2)c2nc(S(=O)(=O)CCC)nc(N)c21 [Example 20]
4. CCCN(C)C(=O)n1c(=O)n(Cc2ccc(Cl)cc2)c2nc(S(=O)(=O)CCC)nc(N)c21 [Example 6]
5. CCCN(C)C(=O)n1c(=O)n(Cc2ccc(Cl)cc2)c2nc(S(=O)(=O)CC)nc(N)c21 [Example 8]

Reply:
10.1
5.6
32.1
2.6
14.9
